B1: library; a variant is named by its letters at N, in order (parent)
chain: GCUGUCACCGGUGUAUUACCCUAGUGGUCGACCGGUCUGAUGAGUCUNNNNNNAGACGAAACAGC

variants of: B1; test: FACS-Seq fitted mean relative fluorescence mCherry/BFP with ligand (log10 relative fluorescence); ligand: hypoxanthine (xanthine aptamer); ligand concentration (+) FACS-Seq: 5 mM; higher = higher reporter protein expression; settings: HEK293T, ligand present: yes
quantity-name: FACS-Seq fitted mean (log10)
One number for each entry.

For every record below, what is its FACS-Seq fitted mean (log10)?
1. CUCCAU
2. UGAGGA
3. GUCAGA
4. GUAUGG
5. UCCCCA
6. GGUAAC
7. GAACAU

Output:
1: 0.134; 2: 0.633; 3: -0.0451; 4: 0.63; 5: 0.843; 6: 0.455; 7: 0.349

For every record below, what is its FACS-Seq fitted mean (log10)?
1. GAGAAC
2. AUUAAA
3. CCAAAC
4. GUCAGC
5. CCAUAU
6. AAAAUU
7. AUGGCG
8. GCAAUG

Output:
1: 0.735; 2: 0.732; 3: 0.528; 4: 0.605; 5: 0.542; 6: 0.491; 7: 0.691; 8: 0.443

For every record below, what is its FACS-Seq fitted mean (log10)?
1. GUCGGA
2. GGGUAA

Output:
1. -0.116
2. 0.622

For every record below, what is its FACS-Seq fitted mean (log10)?
1. ACAGUU
2. GAUUGA
3. GAGAGA
4. AAAAAG

Output:
0.0577
0.455
0.585
0.588

Task: Name the reported FACS-Seq fitted mean (log10) value associated with the variant CACGGU
Output: 0.669

Data credit: the supplement of paper PMC6757056
